The measurements presented in this section are drawn from patent US20020048549A1.

experiment: Biodistribution of 99mTc(N)(X)(DTC)+ heterocomplexes in rats; assay type: in vivo, male Spraque-Dawley rats (SD rats); conditions: 10 min after injection
value.type: Lung % dose/g (% dose/g)
Your answer should be a plain number; it is taken to be in % dose/g.

Sample answers from the record:
COCCC[P]1(CCCOC)CCN(CCOC)CC[P](CCCOC)(CCCOC)[99Tc+]12(#[N])[NH]N(C)C(SC)=[S]2 [^99mTc(N)(PNP3)(DTC)^+] | 0.725
COCCN1CC[P+](c2ccccc2)(c2ccccc2)[99Tc-2]2(#[N])([NH]N(C)C(SC)=[S+]2)[P+](c2ccccc2)(c2ccccc2)CC1 [^99mTc(N)(PNP2)(DTC)^+] | 1.481
CSC1=[S+][99Tc-2]2(#[N])([NH]N1C)[P+](c1ccccc1)(c1ccccc1)CCOCC[P+]2(c1ccccc1)c1ccccc1 [^99mTc(N)(POP)(DTC)^+] | 1.19

// next entry
Looking up CCCN1CC[P+](c2ccccc2)(c2ccccc2)[99Tc-2]2(#[N])([NH]N(C)C(SC)=[S+]2)[P+](c2ccccc2)(c2ccccc2)CC1 [^99mTc(N)(PNP1)(DTC)^+] , I see its Lung % dose/g listed as 3.191

---

assay: Biodistribution of 99mTc(N)(X)(DTC)+ heterocomplexes in rats; format: in vivo, male Spraque-Dawley rats (SD rats); details: 30 min after injection
Listing of recorded Kidney % dose/g by entry.
Your answer should be a plain number; it is taken to be in % dose/g.

Before answering, review these 3 worked examples.
COCCN1CC[P+](c2ccccc2)(c2ccccc2)[99Tc-2]2(#[N])([NH]N(C)C(SC)=[S+]2)[P+](c2ccccc2)(c2ccccc2)CC1 [^99mTc(N)(PNP2)(DTC)^+] | 7.542
COCCC[P]1(CCCOC)CCN(CCOC)CC[P](CCCOC)(CCCOC)[99Tc+]12(#[N])[NH]N(C)C(SC)=[S]2 [^99mTc(N)(PNP3)(DTC)^+] | 5.354
CCCN1CC[P+](c2ccccc2)(c2ccccc2)[99Tc-2]2(#[N])([NH]N(C)C(SC)=[S+]2)[P+](c2ccccc2)(c2ccccc2)CC1 [^99mTc(N)(PNP1)(DTC)^+] | 4.095

Now look at this entry.
Value of measured Kidney % dose/g for the entry CSC1=[S+][99Tc-2]2(#[N])([NH]N1C)[P+](c1ccccc1)(c1ccccc1)CCOCC[P+]2(c1ccccc1)c1ccccc1 [^99mTc(N)(POP)(DTC)^+] : 3.25
